target: T1, human TNF-alpha (hTNF-alpha) (human, UniProt P01375 77-233); assay: SPR (BIAcore), TNFrED captured on BAF225 anti-TNFrED surface, TNF-alpha injected at 1-100 nM, global 1:1 fit
T1 construct: also called biotinylated hTNF-; [125I]TNF-
# koff per record follows
ENDPOINT: koff (s⁻¹)

| BINDER | VALUE REPORTED |
| --- | --- |
| TNFrED H34P (receptor, Secreted from HEK293-EBNA cells, conditioned medium) DSVCPQGKYIHPQNNSICCTKCPKGTYLYNDCPGPGQDTDCRECESGSFTASENHLRHCLSCSKCRKEMGQVEISSCTVDRDTVCGCRKNQYRHYWSENLFQCFNCSLCLNGTVHLSCQEKQNTVCTCHAGFFLRENECVSCSNCKKSLECTKLCLPQIEN | 0.0009 |
| TNFrED H34P+S57I+S87P (receptor, Secreted from HEK293-EBNA cells, conditioned medium; also called H34P + S87P + S571) DSVCPQGKYIHPQNNSICCTKCPKGTYLYNDCPGPGQDTDCRECEIGSFTASENHLRHCLSCSKCRKEMGQVEISPCTVDRDTVCGCRKNQYRHYWSENLFQCFNCSLCLNGTVHLSCQEKQNTVCTCHAGFFLRENECVSCSNCKKSLECTKLCLPQIEN | 0.001 |
| TNFrED H34P+S57I (receptor, Secreted from HEK293-EBNA cells, conditioned medium; also called H34P + S571) DSVCPQGKYIHPQNNSICCTKCPKGTYLYNDCPGPGQDTDCRECEIGSFTASENHLRHCLSCSKCRKEMGQVEISSCTVDRDTVCGCRKNQYRHYWSENLFQCFNCSLCLNGTVHLSCQEKQNTVCTCHAGFFLRENECVSCSNCKKSLECTKLCLPQIEN | 0.0012 |
| TNFrED S57I (receptor, Secreted from HEK293-EBNA cells, conditioned medium; also called S571) DSVCPQGKYIHPQNNSICCTKCHKGTYLYNDCPGPGQDTDCRECEIGSFTASENHLRHCLSCSKCRKEMGQVEISSCTVDRDTVCGCRKNQYRHYWSENLFQCFNCSLCLNGTVHLSCQEKQNTVCTCHAGFFLRENECVSCSNCKKSLECTKLCLPQIEN | 0.0009 |
| TNFrED H34P+S87P (receptor, Secreted from HEK293-EBNA cells, conditioned medium) DSVCPQGKYIHPQNNSICCTKCPKGTYLYNDCPGPGQDTDCRECESGSFTASENHLRHCLSCSKCRKEMGQVEISPCTVDRDTVCGCRKNQYRHYWSENLFQCFNCSLCLNGTVHLSCQEKQNTVCTCHAGFFLRENECVSCSNCKKSLECTKLCLPQIEN | 0.0012 |
| TNFrED S87P (receptor, Secreted from HEK293-EBNA cells, conditioned medium) DSVCPQGKYIHPQNNSICCTKCHKGTYLYNDCPGPGQDTDCRECESGSFTASENHLRHCLSCSKCRKEMGQVEISPCTVDRDTVCGCRKNQYRHYWSENLFQCFNCSLCLNGTVHLSCQEKQNTVCTCHAGFFLRENECVSCSNCKKSLECTKLCLPQIEN | 0.0011 |

// provenance: patent US20050074840A1
